Biological target: HLA-B*48:01
Assay: IEDB peptide-MHC binding, purified MHC/direct/fluorescence; filed as Kd, often an IC50 or EC50 that approximates it; bounds were set here for any values at or beyond the usual limits of such assays
Settings: source organism: Listeria monocytogenes
METRIC NAME: Kd

Could you share which Kd value was measured for EIEIEKNKK ? ≥ 20 µM

----------
Target: HLA-A*03:01
Test: IEDB peptide-MHC binding, purified MHC/competitive/fluorescence; filed as Kd, often an IC50 or EC50 that approximates it; bounds were set here for any values at or beyond the usual limits of such assays
Settings: source organism: Escherichia coli
pKd: −log10 of the molar value.
METRIC NAME: pKd

Could you share which pKd value was measured for RYWRLRYRI ? ≤ 4.70

----------
Target: HLA-B*27:03
Assay: IEDB peptide-MHC binding, purified MHC/competitive/fluorescence; filed as Kd, often an IC50 or EC50 that approximates it; bounds were set here for any values at or beyond the usual limits of such assays
Conditions: source organism: Reston ebolavirus
pKd: −log10 of the molar value.
METRIC NAME: pKd

Could you share which pKd value was measured for WFQRIPLQW ? ≤ 4.70

----------
Target: HLA-B*08:03
Assay: IEDB peptide-MHC binding, purified MHC/direct/fluorescence; filed as Kd, often an IC50 or EC50 that approximates it; bounds were set here for any values at or beyond the usual limits of such assays
Settings: source organism: Listeria monocytogenes serotype 4b str. H7858
pKd: −log10 of the molar value.
METRIC NAME: pKd

Could you share which pKd value was measured for EIEIEKNKK ? ≤ 4.70

----------
Biological target: HLA-A*23:01
Test: IEDB peptide-MHC binding, purified MHC/direct/fluorescence; filed as Kd, often an IC50 or EC50 that approximates it; bounds were set here for any values at or beyond the usual limits of such assays
Conditions: source organism: Zaire ebolavirus
METRIC NAME: Kd

Could you share which Kd value was measured for TAAIMLASY ? ≥ 20 µM

----------
Biological target: HLA-B*53:01
Assay: IEDB peptide-MHC binding, purified MHC/competitive/radioactivity; filed as Kd, often an IC50 or EC50 that approximates it; bounds were set here for any values at or beyond the usual limits of such assays
Details: source organism: Dengue virus 3 Singapore/8120/1995
METRIC NAME: Kd

Could you share which Kd value was measured for MPGTRKVMEI ? 76.4 nM

----------
This section presents sequences with their documented Kd values.
Target: HLA-A*33:01
Experiment: IEDB peptide-MHC binding, purified MHC/competitive/radioactivity; filed as Kd, often an IC50 or EC50 that approximates it; bounds were set here for any values at or beyond the usual limits of such assays
Conditions: source organism: Lassa virus Josiah
Output spec: scalar in µM, unitless text.

MONOMER SEQUENCE: TTGRTSLPK
READOUT UNITS: µM
DATA VALUE: 14.5

Please turn your attention to the following entry.
Could you share which Kd value was measured for NYSKYWYLNH ? 0.863

----------
Target: HLA-B*08:01
Assay: IEDB peptide-MHC binding, purified MHC/competitive/radioactivity; filed as Kd, often an IC50 or EC50 that approximates it; bounds were set here for any values at or beyond the usual limits of such assays
Conditions: source organism: Dengue virus 2 Jamaica/1409/1983
This section presents sequences with their documented Kd values.
Output spec: scalar in nM, unitless text.

MONOMER SEQUENCE: WLVHRQWFL
METRIC NAME: Kd
DATA VALUE: 8.69

Please turn your attention to the following entry.
Item: VLMMRTTWA Test system: HLA-B*08:01 Read-out: Kd Value: ? 12.8
